Cited source: the supplement of paper PMC4862054

- System: CAL-148
- EXPERIMENTAL PROTOCOL: drug sensitivity score (DSS), CellTox Green (DSS (AUC-based score)); higher = stronger drug effect (viability inhibition or cytotoxicity); extreme values may be limits of the assay
- CONDITION SUMMARY: incubation time: 72 h
Please provide measured drug sensitivity score for the entries that follow.
One number for each entry.

COc1cc2c(cc1O)CC[C@@H]1[C@@H]2CC[C@]2(C)[C@@H](O)CC[C@@H]12 [2-methoxyestradiol]
0
C[C@]1(O)C[C@@H](c2nc(-c3ccc4ccc(-c5ccccc5)nc4c3)c3c(N)nccn32)C1 [Linsitinib]
0

Consider now this further molecule.
**Q:** Which drug sensitivity score value is on record for CC(=O)O[C@@]12CO[C@@H]1C[C@H](O)[C@@]1(C)C(=O)[C@H](O)C3=C(C)[C@@H](OC(=O)[C@H](O)[C@@H](NC(=O)OC(C)(C)C)c4ccccc4)C[C@@](O)([C@@H](OC(=O)c4ccccc4)[C@H]21)C3(C)C [Docetaxel] ?
**A:** 0
